Sourced from ChEMBL document CHEMBL3872208

# pKi annotations
Test target: D(2) dopamine receptor (Homo sapiens, UniProt P14416)
Sequence (P14416 whole entry): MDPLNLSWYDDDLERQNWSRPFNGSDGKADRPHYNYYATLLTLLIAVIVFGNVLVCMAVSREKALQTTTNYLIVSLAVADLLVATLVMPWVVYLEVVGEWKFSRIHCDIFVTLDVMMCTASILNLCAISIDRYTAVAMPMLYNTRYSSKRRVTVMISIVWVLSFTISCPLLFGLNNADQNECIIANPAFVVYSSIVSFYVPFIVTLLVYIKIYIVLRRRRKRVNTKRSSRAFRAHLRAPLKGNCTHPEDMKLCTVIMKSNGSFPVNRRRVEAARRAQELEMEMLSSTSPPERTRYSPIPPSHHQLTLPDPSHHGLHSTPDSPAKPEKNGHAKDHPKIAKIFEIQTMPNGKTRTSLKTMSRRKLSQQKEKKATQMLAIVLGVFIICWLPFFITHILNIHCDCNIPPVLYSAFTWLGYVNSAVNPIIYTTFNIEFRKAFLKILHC
Test: Displacement of [3H]spiperone from recombinant human D2L receptor expressed in CHO cell membranes after 60 mins by scintillation counting method
Here pKi is given on a logarithmic scale as minus log10 of the concentration in mol/L.

Recorded pKi, per entry:
O=C(Nc1ccccc1)N[C@H]1CC[C@H](CCN2CCN(c3nsc4ccccc34)CC2)CC1 | 9.20
O=C(N[C@H]1CC[C@H](CCN2CCN(c3nsc4ccccc34)CC2)CC1)c1cccs1 | 9.72
O=C(N[C@H]1CC[C@H](CCN2CCN(c3nsc4cc([N+](=O)[O-])ccc34)CC2)CC1)c1ccco1 | 7.59

The recorded pKi for entry O=C(NC[C@H]1CC[C@H](CN2CCN(c3nsc4ccccc34)CC2)CC1)c1ccco1 equals 8.05

Item: CCCS(=O)(=O)N[C@H]1CC[C@H](CCN2CCN(c3nsc4ccccc34)CC2)CC1 | pKi: 8.72

Given item CS(=O)(=O)N[C@H]1CC[C@H](CCN2CCN(c3nsc4ccccc34)CC2)CC1 , the value recorded as its pKi is 8.05

// pKi lookup, molecule = CCCC(=O)N[C@H]1CC[C@H](CCN2CCN(c3nsc4ccccc34)CC2)CC1 , result: 8.55

pKi reported for this molecule O=C(N[C@H]1CC[C@H](CCN2CCN(c3nsc4ccccc34)CC2)CC1)C1CC1 : 9.07

Measured pKi of O=C(Nc1cccnc1)N[C@H]1CC[C@H](CCN2CCN(c3nsc4ccccc34)CC2)CC1 : 9.29

* * *

Test: Half life in Sprague-Dawley rat plasma at 2.0 mg/kg, po administered as single dose by LC-MS/MS analysis
Assay type: ADME, organism-based
Assay endpoint: half-life (h)
Give just the number in h; leave the unit off.

// field: half-life; key: O=C(N[C@H]1CC[C@H](CCN2CCN(c3nsc4ccccc34)CC2)CC1)c1ccco1 ; value = 1.7

* * *

Test: Apparent clearance in Sprague-Dawley rat plasma at 0.5 mg/kg, iv administered as single dose by LC-MS/MS analysis
Type: ADME, organism-based
Run conditions: read-out: CL(app) (converted)
Assay endpoint: clearance
Report as: number unit

Entry O=C(N[C@H]1CC[C@H](CCN2CCN(c3nsc4ccccc34)CC2)CC1)c1ccco1 , clearance reported as 76.7 mL/min/kg

* * *

Test target: 5-hydroxytryptamine receptor 2A (Homo sapiens)
Sequence (P28223 whole entry): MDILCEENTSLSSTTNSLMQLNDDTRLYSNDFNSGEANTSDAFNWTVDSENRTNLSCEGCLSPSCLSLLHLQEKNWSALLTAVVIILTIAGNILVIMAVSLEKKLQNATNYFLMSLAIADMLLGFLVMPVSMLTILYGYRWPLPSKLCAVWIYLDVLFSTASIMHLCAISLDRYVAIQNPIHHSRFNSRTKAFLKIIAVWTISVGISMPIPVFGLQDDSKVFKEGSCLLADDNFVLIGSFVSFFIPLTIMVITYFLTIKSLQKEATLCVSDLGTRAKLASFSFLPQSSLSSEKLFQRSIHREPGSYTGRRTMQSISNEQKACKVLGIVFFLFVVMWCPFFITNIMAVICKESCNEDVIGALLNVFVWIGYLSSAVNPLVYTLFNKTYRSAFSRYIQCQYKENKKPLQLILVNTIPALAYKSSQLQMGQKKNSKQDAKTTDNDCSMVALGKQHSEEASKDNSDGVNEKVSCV
Test: Antagonistic activity at 5-HT2A receptor (unknown origin) expressed in CHOK1 cells co-expressing G-alpha 15 assessed as inhibition of serotonin-induced calcium flux by Fluo-4 based FLIPR assay
Assay endpoint: IC50 (nM)
Express it in nM; write the number only.

Form field IC50, entry O=C(N[C@H]1CC[C@H](CCN2CCN(c3nsc4ccccc34)CC2)CC1)c1ccco1 : 31.8

* * *

Recorded pKi by entry
Test target: 5-hydroxytryptamine receptor 1A (Homo sapiens)
Sequence (P08908 whole entry): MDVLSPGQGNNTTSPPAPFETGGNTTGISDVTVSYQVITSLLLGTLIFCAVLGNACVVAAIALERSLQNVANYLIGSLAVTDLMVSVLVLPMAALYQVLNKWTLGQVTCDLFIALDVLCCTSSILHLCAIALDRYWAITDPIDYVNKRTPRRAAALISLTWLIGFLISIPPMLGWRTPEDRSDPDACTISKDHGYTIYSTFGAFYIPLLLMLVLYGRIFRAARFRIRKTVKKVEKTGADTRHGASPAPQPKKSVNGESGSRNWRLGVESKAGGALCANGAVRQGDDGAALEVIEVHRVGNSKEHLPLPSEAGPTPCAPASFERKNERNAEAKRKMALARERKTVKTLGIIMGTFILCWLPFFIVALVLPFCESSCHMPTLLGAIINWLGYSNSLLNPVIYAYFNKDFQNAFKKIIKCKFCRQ
Test: Displacement of [3H]8-OH-DPAT from recombinant human 5-HT1A receptor expressed in HEK293 cell membranes after 60 mins by scintillation counting method
# pKi: negative log10 of molar concentration; output just the value

O=C(N[C@H]1CC[C@H](CCN2CCN(c3nsc4ccccc34)CC2)CC1)N1CCOCC1 | 7.82

Here O=C(N[C@H]1CC[C@H](CCN2CCN(c3nsc4ccccc34)CC2)CC1)c1ccco1 was tested on 5-hydroxytryptamine receptor 1A (Homo sapiens), and its pKi came to 8.89

Log: 5-hydroxytryptamine receptor 1A (Homo sapiens), molecule CC(C)N(C(=O)N[C@H]1CC[C@H](CCN2CCN(c3nsc4ccccc34)CC2)CC1)C(C)C , pKi = 8.64

For the molecule O=C(N[C@H]1CC[C@@H](CCN2CCN(c3nsc4ccccc34)CC2)CC1)c1ccco1 , the measured pKi on 5-hydroxytryptamine receptor 1A (Homo sapiens) was 8.66

The molecule CN(C)C(=O)N[C@H]1CC[C@H](CCN2CCN(c3nsc4ccccc34)CC2)CC1 on 5-hydroxytryptamine receptor 1A (Homo sapiens): pKi was 8.92

pKi value, target or system 5-hydroxytryptamine receptor 1A (Homo sapiens), for O=C(N[C@H]1CC[C@H](CCN2CCN(c3nsc4cc([N+](=O)[O-])ccc34)CC2)CC1)c1ccco1 : 7.41

The reported 5-hydroxytryptamine receptor 1A (Homo sapiens) pKi of O=C(N[C@H]1CC[C@H](CCN2CCN(c3nsc4ccccc34)CC2)CC1)C1CCCCC1 is 8.25

# lookup: COCC(=O)N[C@H]1CC[C@H](CCN2CCN(c3nsc4ccccc34)CC2)CC1 on 5-hydroxytryptamine receptor 1A (Homo sapiens), pKi = 8.52

Result for N[C@H]1CC[C@H](CCN2CCN(c3nsc4ccccc34)CC2)CC1 , tested on 5-hydroxytryptamine receptor 1A (Homo sapiens), pKi: 8.14
